method summary: Caco-2 membrane permeability and transport
Format: in vitro ADME
condition notes: human, pH 7.4; Caco-2, Papp (B-A)/Papp (A-B)
property: efflux ratio at 2 h, 10 µM

{"structure string": "Cc1nc(N[C@H](C)c2cccc(C(F)F)c2F)c2cn(C3(CF)CC3)c(=O)c(N3CCOC[C@@H]3C)c2n1", "recorded result": 13.1}

###

method summary: Pharmacokinetics in mice after single intragastric or intravenous administration
Format: in vivo
condition notes: female, BALB/c nude, mouse, plasma, single intravenous administration, 3 mg/kg
Protocol: Healthy adult female BALB/c nude mice were evenly divided into groups of 3 mice per group. 3 mice were administered intragastrically, and 3 mice were administered intravenously. The mice were purchased from Beijing Vital River Laboratory Animal Technology Co., Ltd., animal production license number: SCXK (Zhejiang) 2019-0001. […]
property: C0

{"molecule": "COc1c(=O)n(C2(CF)CC2)cc2c(N[C@H](C)c3cccc(C(F)F)c3F)nc(C)nc12 [Example 1]", "property": "C0", "recorded result": "2960 ng/mL"}
